# test.description: Toxicity liver stage against HepG2, at 10uM
# Type: cell-based
# Design: test concentration 10 uM, cell line HepG2-A16-CD81EGFP
# condition.details: human, HepG2-A16-CD81EGFP cells; read-out: INHIBITION
recorded.metric: cytotoxicity at 10 µM (%)
Give just the numeric value; % need not be written.

INPUT: I would be grateful if you could share the reported cytotoxicity at 10 µM for Cc1nnc(NCc2cccnc2OCC(F)(F)F)c(C#N)c1C .
OUTPUT: -7.77

INPUT: One more compound: Cc1cnn(CC2CCCN2Cc2noc(CC(C)C)n2)c1 (stereo not given)
OUTPUT: -5.04

INPUT: // query: Cc1cc(C)n(C2CCCN(C(=O)CCNc3ncccn3)C2)n1 (stereo not given)
OUTPUT: -2.53

INPUT: Also need CSc1ccc(NCc2csc(CS(C)(=O)=O)n2)cc1F , thanks.
OUTPUT: -9.99

INPUT: # iterate: Cc1ccc(C(CNCc2ccc(C#N)cc2)N2CCOCC2)s1 (stereo not given)
OUTPUT: 15.3

INPUT: What do you have for CN1CCC(N(C)C(=O)CSc2ccc(F)c(F)c2)C1=O (stereo not given) ?
OUTPUT: -5.89

INPUT: Moving on to the next compound: O=C(N1CCCCC1)N1CCCC(c2ncncc2-c2ccncc2)C1 (stereo not given)
OUTPUT: -32.1

INPUT: Same question, O=C1CCC(=O)c2oc3ccccc3c2N1 this time
OUTPUT: 4.34

INPUT: Note, next up: Cc1noc(C)c1C(=O)NCC(C)N(C)C (stereo not given)
OUTPUT: -8.4

INPUT: And the next one, OCC1CCCCN1Cc1nc(Cc2ccccc2)no1 (stereo not given) ?
OUTPUT: 5.13

INPUT: Lookup OCCNc1nc(Nc2ccccc2)c2nccnc2n1
OUTPUT: 3.72

INPUT: Could you do the same for Cc1n[nH]c(C)c1C1COCCN1C(=O)c1ccccc1 (stereo not given) , please?
OUTPUT: -3.94

INPUT: One more compound: COc1cc(OC)nc(N2CCC3(CC2)OCCCC3O)n1 (stereo not given)
OUTPUT: 2.67

INPUT: Same lookup for Cc1nn(CCO)cc1CN1CCC(C(C)N2CCCC2)CC1 (stereo not given) , please.
OUTPUT: -1.04

INPUT: Now this one: c1coc(CN2CCC3(CC2)CC(N2CCCC2)CO3)c1 (stereo not given)
OUTPUT: -11.9

---

# test.description: Toxicity liver stage against HepG2, at 10uM
# Assay type: cell-based
# Design: test concentration 10 uM, cell line HepG2-A16-CD81EGFP
# condition.details: human, HepG2-A16-CD81EGFP cells; read-out: INHIBITION
recorded.metric: cytotoxicity at 10 µM (%)
Quick reminder: number only, in %, skip the unit.

INPUT: Consider the compound CCc1cnc(N2C[C@@H]3[C@@H](C(=O)N(C)C)CCS(=O)(=O)[C@@H]3C2)nc1 and give its measured cytotoxicity at 10 µM.
OUTPUT: -108

INPUT: Now consider CC1CN(C(=O)CN(Cc2ccccc2)C2CC2)CCO1 (stereo unspecified) .
OUTPUT: -16.1

INPUT: Now consider OCC1N(Cc2ccco2)C2CCC1(O)CC2 (stereo unspecified) and answer again.
OUTPUT: 3.1

INPUT: Repeat for the following compound: Cc1ccn2ncc(C(=O)N3CCCC(n4nc(C)nc4C)C3)c2n1 (stereo unspecified)
OUTPUT: -13.6

INPUT: Can you check COc1ncccc1C(=O)Nc1nc2c(s1)CN(S(=O)(=O)C1CC1)CC2 next?
OUTPUT: -9.04

INPUT: Similarly, CCCn1ccnc1-c1nccn1CCC(N)=O ?
OUTPUT: -10.3

INPUT: Record: CC(C)NC(=O)C1CCc2nnc(CNC(=O)c3ccc(Cl)cc3Cl)n21 (stereo unspecified)
OUTPUT: 5.84

INPUT: Repeat with COc1ccnc(NC(=O)c2cnccn2)c1
OUTPUT: 7.97

INPUT: Same lookup for Cc1cncc(C(=O)N2CCNCC2C(=O)Nc2ccc(C)nc2)c1 (stereo unspecified) , please.
OUTPUT: -5.19

INPUT: Cool, now CC(=O)NCC(=O)N1CCC2(COCc3c(C)nc(N(C)C)nc32)C1 (stereo unspecified)
OUTPUT: 1.41

INPUT: Consider next the compound Cc1cc2nc(C(C)C)cc(N(C)CC3CCCN(CCO)C3)n2n1 (stereo unspecified) in the same way.
OUTPUT: 7.52

INPUT: Can you check Nc1nc2c(c(NCc3nc(-c4ccncc4)n[nH]3)n1)CCCC2 next?
OUTPUT: -0.0554

INPUT: Now the same for c1ccc(CN2CCc3ncnc(C4CC4)c3CC2)nc1
OUTPUT: -138

INPUT: And what about the compound Cc1cnn(CC2CCCN2C(=O)c2ccc(-n3cccn3)nc2)c1 (stereo unspecified) ?
OUTPUT: -15.7

INPUT: Moving on to the next compound: CNCc1cc(F)ccc1Oc1ccc(Cl)cc1
OUTPUT: -8.74

INPUT: Moving on to N#Cc1c(F)cccc1N1CCC(C(=O)Nc2nccs2)CC1
OUTPUT: 0.329

INPUT: Quick one: COc1cc(N2CCN(Cc3ccsc3)C(CCO)C2)nc(N)n1 (stereo unspecified)
OUTPUT: 2.45

INPUT: Now consider COc1cc(-c2cnnc(NCCSC)n2)cc(OC)c1OC .
OUTPUT: 3.98

INPUT: Now consider COCC(=O)N1CC[C@H]2N(C)CC[C@@]2(C(=O)Nc2ccccc2)CC1 and answer again.
OUTPUT: 3.48

INPUT: Can you check COCCN(CCN(C)C)C(=O)NC1CCc2ccccc2C1 (stereo unspecified) next?
OUTPUT: -5.17

INPUT: Proceed to C[C@]1(O)CN(CCO)CC[C@@H]1Oc1cccc(F)c1
OUTPUT: -6
